Values from patent US8729093B2

Test system: rice "Bakanae" disease
Protocol Description: whole plant or invertebrate
Assay type: in vivo
Measurement Conditions: Oryza sativa, 504 h, read-out: prevention value

{"Compound": "CC1(C)[N+]([O-])=C(c2cnc3ccccc3c2)c2ccccc2C1(F)F", "pest or weed control at 0.02 % a.i.": "≥ 80%"}
{"Compound": "CC1(C)N=C(c2cnc3ccccc3c2)c2cccc(F)c2C1(C)C", "pest or weed control at 0.02 % a.i.": "≥ 80%"}
{"Compound": "CC1(C)c2c(F)cccc2C2(c3cnc4ccccc4c3)ON2C1(C)C (centres unmarked)", "pest or weed control at 0.02 % a.i.": "≥ 80%"}
{"Compound": "CC1(C)N=C(c2cnc3ccccc3c2)c2ccccc2C1(F)F", "pest or weed control at 0.02 % a.i.": "≥ 80%"}
{"Compound": "CC1(C)[N+]([O-])=C(c2cnc3ccccc3c2)c2cccc(F)c2C1(F)F", "pest or weed control at 0.02 % a.i.": "≥ 80%"}

----------
Test system: rice "Bakanae" disease
Protocol Description: whole plant or invertebrate
Format: in vivo
Measurement Conditions: Oryza sativa, 504 h, read-out: prevention value

{"Smiles Input": "CC1(C)Cc2c(F)cccc2C(c2cnc3ccccc3c2)=N1", "pest or weed control at 0.02 % a.i.": "≥ 80%"}
{"Smiles Input": "CC1(C)c2c(F)cccc2C(c2cnc3ccccc3c2)=[N+]([O-])C1(C)C", "pest or weed control at 0.02 % a.i.": "≥ 80%"}
{"Smiles Input": "CC1(C)N=C(c2cnc3ccccc3c2)c2cccc(F)c2C1(F)F", "pest or weed control at 0.02 % a.i.": "≥ 80%"}
{"Smiles Input": "CC1(C)N=C(c2cnc3ccccc3c2)c2ccccc2C1(C)C", "pest or weed control at 0.02 % a.i.": "≥ 80%"}

----------
Below, each entry is listed with its recorded disease severity.
System: rice blast
Assay type: in vivo, Pyricularia oryzae
Measurement Conditions: rice (Sachikaze); nursery box soil treated at sowing time or transplanting time, 400 g a.i./10 a; observed 7 days after inoculation; untreated plants = 3

{"Smiles Input": "CC1(C)Cc2c(Cl)cccc2C(c2cnc3ccccc3c2)=N1", "disease severity": 0}
{"Smiles Input": "CC1(C)[N+]([O-])=C(c2cnc3ccccc3c2)c2ccccc2C1(F)F", "disease severity": 0}
{"Smiles Input": "CC1(C)N=C(c2cnc3ccccc3c2)c2ccccc2C1(F)F", "disease severity": 0}
{"Smiles Input": "Cc1cccc2cc(C3=NC(C)(C)C(C)(C)c4c(F)cccc43)cnc12", "disease severity": 0}
{"Smiles Input": "CC1(C)c2cc(F)ccc2C(c2cnc3ccccc3c2)=[N+]([O-])C1(C)C", "disease severity": 0}
{"Smiles Input": "CC1(C)Cc2c(ccc(F)c2F)C(c2cnc3ccccc3c2)=N1", "disease severity": 0}
{"Smiles Input": "CC1(C)Cc2c(F)cccc2C(c2cnc3ccccc3c2)=N1", "disease severity": 0}
{"Smiles Input": "CC1(C)c2c(F)cccc2C(c2cnc3ccccc3c2)=[N+]([O-])C1(C)C", "disease severity": 0}
